- Tested on: Wild type
- ASSAY: S. aureus survival, RN4220 and DeltatarO strains – OD600, teichoic acid synthesis inhibitors, primary screen (AID 463173)
- CONDITIONS: S. aureus RN4220 wild type/DeltatarO growth, OD600, 18 h, hits give low values, screened at 18.75 µg/mL (by protocol)
Out of some 52,000 compounds screened, about 1,700 (3.3%) were called active. The entries come from a sample that favours actives as a whole.
Could you please mark Condition met for values of survival below 90% and Condition not met for values at or above it?

STRUCTURE SMILES STRING: CCCCOc1ccc(CN2C(=O)C(=O)c3cc(C)ccc32)cc1OC
ASSIGNED LABEL: Condition met
--
STRUCTURE SMILES STRING: CCOc1ccccc1NC(=O)c1cnn2c(C(F)F)cc(-c3ccccc3)nc12
ASSIGNED LABEL: Condition met
--
STRUCTURE SMILES STRING: CCCCCOc1ccccc1CN1C(=O)C(=O)c2cc(C)ccc21
ASSIGNED LABEL: Condition not met
--
STRUCTURE SMILES STRING: CCOC(=O)c1ccccc1NC(=O)c1ccco1
ASSIGNED LABEL: Condition not met
--
STRUCTURE SMILES STRING: Cc1ccc2c(c1)C(=O)C(=O)N2Cc1ccc(OCCC(C)C)cc1
ASSIGNED LABEL: Condition met

Find out if reported survival for `CCCCCOc1ccccc1Cn1c(=O)oc2ccc(C)cc21` is less than 90%
Condition met

Bench note: check whether `O=Nc1c(O)n2c3c(cccc13)CCC2` shows survival below 90%
Condition not met

Find out if reported survival for `C#CCNc1c2c(nc3nnnn13)CCCC2` is less than 90%
Condition not met

Threshold test, survival < 90%: `CCCSc1ncc(Cl)c(C(=O)N(Cc2ccccc2)c2ccc(OC)cc2)n1`
Condition met

Input `COc1ccc(-c2noc(N3CCN(c4cccc(Cl)c4)CC3)n2)cc1OC` ; condition: survival strictly below 90%. Does it hold?
Condition met

survival strictly < 90% for this molecule? `C/C(=N\NC(N)N)C1CCCCCCCCCCC1`
Condition met

Does this molecule meet the criterion survival < 90%? `CC(=O)Nc1nonc1-c1nc2ccccc2n1Cc1ccccc1Br`
Condition not met
